- Test system: M14
- method-notes: NCI tumour cell line growth inhibition, 48 h
Activity calls are given as the source filed them. No stated cut-off is given here; in the data, active = GI50 up to about 1.1 µM and inactive = higher.
measurement-type: GI50

COc1ccc2nc(NC(=O)C(=O)C(C#N)c3ccc([N+](=O)[O-])cc3)sc2c1 (stereo not given) ... > 100 µM (inactive)

Now consider the entry below.
GI50 recorded for this molecule, C/C(=N/NC(=S)Nc1ccc(Cl)cc1)c1cccc(/C(C)=N\NC(=S)Nc2ccc(Cl)cc2)n1 , is 1.79 µM (inactive)

----------
- System: EKVX
- method-notes: NCI tumour cell line growth inhibition, 48 h
Activity calls are given as the source filed them. Cut-off read from the data, not from the text of the source: active = GI50 up to about 1.1 µM and inactive = higher.
measurement-type: GI50

OC(c1ccc(C(F)(F)F)cc1)C(F)(F)c1nc2ccccc2o1 (configuration not stated) ... > 100 µM (inactive)
OCC(O)COCn1cc(Cn2ncc3c(SCc4ccccc4)ncnc32)nn1 (configuration not stated) ... > 100 µM (inactive)
CCOC(=O)NN(C(=O)OCC)C(=C(C1=CCCCC1)N1CCOCC1)N(NC(=O)OCC)C(=O)OCC ... > 100 µM (inactive)
Nc1cc2[nH]cnc2c(=O)[nH]1 [DEZAGUANINE] ... 56.2 µM (inactive)

Please fill in: GI50 reported for COc1ccc2nc(NC(=O)C(=O)C(C#N)c3ccc([N+](=O)[O-])cc3)sc2c1 (configuration not stated) = 31.9 µM (inactive)

Per the records, this compound ( Cc1ccc(S(=O)(=O)c2ccc(N)cc2)cc1 ) has GI50 equal to > 100 µM (inactive)

// CCCCCCCCCCCOc1ccc(C(=O)C(=O)c2ccc(OCCCCCCCCCCC)c(OCCCCCCCCCCC)c2)cc1OCCCCCCCCCCC : GI50 value = > 100 µM (inactive)

For reference, reported GI50 for CC(=O)N(C)c1ccc(/N=C/N(C)C)cc1 stands at > 100 µM (inactive)

Notebook: NCCN(CCN(C(=O)Nc1ccccc1)c1ccccc1)C(=O)Nc1ccccc1 , GI50 read as 23.6 µM (inactive)

Entry CC(=O)Oc1ccc2c(=O)c(C(C)=O)coc2c1 ; GI50 = > 100 µM (inactive)

// GI50 lookup, compound = COC(=O)Cc1c([C@@H]2Nc3ccccc3[C@H]2CC(=O)OC)[nH]c2ccccc12 , result: 43 µM (inactive)

For reference, reported GI50 for CCCCCCOC(=O)C(N)Cc1ccc(OC)cc1 (configuration not stated) stands at > 100 µM (inactive)

----------
- Tested on: IGROV-1
- method-notes: NCI tumour cell line growth inhibition, 48 h
Active and inactive are the calls of the source. Cut-off read from the data, not from the text of the source: active = GI50 up to about 1.1 µM and inactive = higher.
Valid outcomes are listed here; reply with one: active, inactive

Previously resolved entries follow.
CCOC(=O)c1oc2c(OC)cc(Cl)c3c2c1CCC3 ... inactive
COC1CC(OC2CCC3(C)C(=CCC4C3C(OC(C)=O)C(OC(=O)CC(C)C)C3(C)C(C(C)=O)CCC43O)C2)OC(C)C1OC1CC(OC)C(OC2CC(OC)C(OC3OC(C)C(O)C(OC)C3O)C(C)O2)C(C)O1 (stereo unspecified) ... inactive
CCOC(=O)c1nc2c(nc1C(=O)OCC)C(=O)c1ccccc1C2=O ... inactive

Just curious, what result did O=C(O)/C(=C\c1ccncc1)c1cccc2ccccc12 get here?
inactive

Hi, do you know how Cc1c2ccnc(C(=O)NCCN(C)C)c2cc2c3cc(O)ccc3n(C)c12 came out in this test?
active

Recorded test call requested for O=C1C(c2ccc([N+](=O)[O-])cc2)=[N+]([O-])c2ccc([N+](=O)[O-])cc21
inactive

----------
# reported GI50; entries follow
- Test system: HL-60
- method-notes: NCI tumour cell line growth inhibition, 48 h
Activity calls are given as the source filed them. Cut-off read from the data, not from the text of the source: active = GI50 up to about 1.1 µM and inactive = higher.

Field: example entries. Status: answers known.
COc1cc(Cc2nccc3cc(OC)c(OC)cc23)c(C(C)=O)cc1OC ... 59.7 µM (inactive)
COc1cccc2c1c1ccc3c(c1n2C)C(=O)C=CC3=O ... 1.51 µM (inactive)
Nc1ccc(C(=O)NN2C(=O)C(Cl)C2c2cc(Br)ccc2O)cc1 (stereo not drawn) ... 30.1 µM (inactive)
C=C1c2nc3ccccc3n2C=C(c2ccccc2)N1c1ccc([N+](=O)[O-])cc1 ... 7.01 µM (inactive)
C[C@]12Cc3conc3C(O)=C1CC[C@@H]1C2CC[C@@]2(C)C1CC[C@@H]2O (stereo partly drawn) ... 2.55 µM (inactive)

Short answer on HL-60 for O=c1[nH]n2c(=O)cc[nH]c2c1-c1nnns1 , GI50: > 100 µM (inactive)

Known value: HL-60 GI50 of the compound COP(=O)(C(/C=C/c1ccccc1)OC(C)=O)[C@@H]1CCCC[C@H]1N(CC(C)(C)C)C(C)=O (stereo partly drawn) equals 14.6 µM (inactive)

Item COc1cc(O)c2c(=O)cc(C3(OC(C)=O)C=CC(OC4OC(CO)C(O)C(O)C4O)C=C3)oc2c1 (stereo not drawn) was tested on HL-60; the reported GI50 is > 100 µM (inactive)

----------
Readings of GI50 for the listed compounds
- Tested on: SK-OV-3
- method-notes: NCI tumour cell line growth inhibition, 48 h
The source made the active and inactive calls. Rule as the data show it: active = GI50 up to about 1.1 µM and inactive = higher.

Consider the reported GI50 for these compounds:
COc1ccc(C(C)NNC(=O)c2cc[n+]([BH2-]C#N)cc2)cc1OC (stereo unspecified) ... 54.3 µM (inactive)
Nc1ccc(C(=O)CC2(O)C(=O)Nc3c(Cl)cc(Cl)cc32)cc1 (stereo unspecified) ... > 100 µM (inactive)
O=C(Nc1cccc2ccccc12)Nn1cnnc1 ... > 100 µM (inactive)
CCCSc1cc(Cl)c(C)cc1S(=O)(=O)n1ccnc1O ... > 100 µM (inactive)
COc1cccc(C2C(C(=O)O)=C(CO)Oc3cc4c(cc32)OCO4)c1 (stereo unspecified) ... > 100 µM (inactive)

Param item: Cc1ccc(O)c(C2=CC3=NNC(=O)C3C(c3cccc(Br)c3)C2)c1 (stereo unspecified) ; param system: SK-OV-3; output GI50: 14.6 µM (inactive)

----------
- Test system: NCI-H460
- method-notes: NCI tumour cell line growth inhibition, 48 h
Activity calls are given as the source filed them. Rule as the data show it: active = GI50 up to about 1.1 µM and inactive = higher.
measurement-type: GI50

Cn1ccc(C(=O)NCCCCCNC(=O)c2ccn(C)c(=O)c2O)c(O)c1=O ... > 100 µM (inactive)
N=C(N)Nc1ccc(CC(N)C(=O)NCC(=O)C(CC(=O)O)c2ncc(NC(=O)C(F)(F)F)o2)cc1 (stereo unspecified) ... > 25 µM (inactive)
COc1cc(OC)c2nc(C)c3c(c2c1)NCC3 ... 3.33 µM (inactive)
CC(C)N(C(=O)C12C3C4C5C3C1(C(=O)N(C(C)C)C(C)C)C5(C#N)C42)C(C)C (stereo unspecified) ... 61 µM (inactive)

Moving on to another compound below.
Memo: COC1CC(OC2CCC3(C)C(=CCC4C3C(OC(C)=O)C(OC(=O)CC(C)C)C3(C)C(C(C)=O)CCC43O)C2)OC(C)C1OC1CC(OC)C(OC2CC(OC)C(OC3OC(C)C(O)C(OC)C3O)C(C)O2)C(C)O1 (stereo unspecified) , reported GI50: 28.7 µM (inactive)

----------
- System: HOP-62
- method-notes: NCI tumour cell line growth inhibition, 48 h
Activity calls are given as the source filed them. No stated cut-off is given here; in the data, active = GI50 up to about 1.1 µM and inactive = higher.
measurement-type: GI50

Worked cases, answers included:
CN(C)c1ccc(/C=C/c2ccc(S(N)(=O)=O)cc2)cc1 ... 18.7 µM (inactive)
C/C(CC(=O)Nc1ccc(Cl)cc1)=N\NC(N)=S ... 67.9 µM (inactive)
O=C(NNC(=O)c1nsc2ccccc12)c1ccc(Cl)cc1 ... 18.3 µM (inactive)
CCOC(=O)CCC(NC(=O)c1ccc(Nc2cnc3cc(C(F)(F)F)ccc3n2)cc1)C(=O)OCC (stereo not given) ... 11 µM (inactive)
CCCCCCCCCCCOc1ccc(C(=O)C(=O)c2ccc(OCCCCCCCCCCC)c(OCCCCCCCCCCC)c2)cc1OCCCCCCCCCCC ... > 100 µM (inactive)
N#C/C(=C\c1c(Cl)cccc1Cl)c1ccccc1 ... 3.83 µM (inactive)
Cc1cc(O)c(C(C)C)cc1C1(c2cc(C(C)C)c(O)cc2C)OC(=O)c2ccccc21 ... 2.76 µM (inactive)
COc1ccc2c(c1)CC[C@@H]1C2CC[C@]2(C)C(=O)N(N)C(=O)CC12 (stereo not given in full) ... > 100 µM (inactive)

Kindly note the recorded GI50 for COc1cc(OC)c2nc(C)c3c(c2c1)NCC3 , which is 7.74 µM (inactive)

compound NNC(=O)c1nn[nH]c1SSc1[nH]nnc1C(=O)NN , GI50 observed: > 100 µM (inactive)

Reported GI50 for CC1(C)N=c2[nH]cnc2=C(C(N)=O)N1 was > 100 µM (inactive)

----------
- Tested on: RXF 393
- method-notes: NCI tumour cell line growth inhibition, 48 h
Activity calls are given as the source filed them. Cut-off read from the data, not from the text of the source: active = GI50 up to about 1.1 µM and inactive = higher.
The reply should name one outcome from active, inactive

Solved cases below.
Cc1cc(C)nc(NS(=O)(=O)c2ccc(Nc3nnc(/C=C/c4c(O)ccc5ccccc45)c(=O)n3N)cc2)n1 ... inactive
Cc1ccc(/C=N/C23CC4CC(CC(C4)C2)C3)cc1 ... inactive
CN(C)c1ccc(/C=C/c2ccc(S(N)(=O)=O)cc2)cc1 ... inactive

Each compound tested received a call. Report the one for C=C(c1ccccc1)C1(O)CCCCC1N (stereo not drawn) .
inactive

What outcome does the record of this test show for NNC(=O)c1nn[nH]c1SSc1[nH]nnc1C(=O)NN ?
inactive

Hi, do you know how CCCCCCCCCC(O)CC(=O)c1c(O)cccc1O (stereo not drawn) came out in this test?
inactive

So what was the verdict on CC[C@@]1(O)C(=O)OCc2c1cc1n(c2=O)Cc2cc3cc4c(cc3nc2-1)OCO4 in this test?
active

What did the test return for C/C(CC(=O)Nc1ccc(Cl)cc1)=N\NC(N)=S ?
inactive

Recorded test outcome, item C=C1C(=O)OC2C3OC(C)(CCC(O)C3COC(C)=O)CC(OC(=O)/C(=C/C)COC(C)=O)C12 (stereo not drawn)
active

Cited source for all entries: ChEMBL document CHEMBL1201862
